Published Ki for 5-hydroxytryptamine receptor 2A (Homo sapiens), assembled from different documents, is shown next.

Below: 2 compounds and their reported Ki.
smiles record: Cn1cncc1-c1c[nH]c2ccc(C(N)=O)c(F)c12
target: 5-hydroxytryptamine receptor 2A (Homo sapiens)
Ki: > 10 µM

smiles record: CN(C)c1ccc2c(c1)CCN2C(=O)Nc1cccnc1
target: 5-hydroxytryptamine receptor 2A (Homo sapiens)
Ki: > 6.31 µM

Now take the following compound into account.
### Prompt Give 5-hydroxytryptamine receptor 2A (Homo sapiens) Ki for the following compound: N#Cc1cc(F)cc(C#Cc2csc(CF)n2)c1
### Response > 10 µM

----------
Published Ki for UniProtKB P28223, assembled from different documents, is shown next.
measurement kind: Ki (nM)

Below: 5 compounds and their reported Ki.
compound: O=C(c1ccc(F)cc1)C1CCN(CCn2c(=S)[nH]c3ccccc3c2=O)CC1
measurement kind: Ki
result unit: nM
value: 0.13
//
compound: CN1CCc2ccc(O)cc2C(c2ccccc2)C1 (racemic)
measurement kind: Ki
result unit: nM
value: 133
//
compound: CC(=O)c1c(C)cc2oc(=O)cc(C)c2c1OCCCN1CCN(c2ccc([N+](=O)[O-])cc2)CC1
measurement kind: Ki
result unit: nM
value: 286
//
compound: COc1ccc(NC(=O)N2CCN(c3ccc(-c4ccccc4)cc3)CC2)cc1N1CCN(C)CC1
measurement kind: Ki
result unit: nM
value: 171
//
compound: Cc1cc2c(cc1OCCCCN1CCN(c3cccc4ccccc34)CC1)C(=O)NC2
measurement kind: Ki
result unit: nM
value: 36.8

(A) CCn1nc2c(c1-c1ccccc1)CCNCC2
(B) COc1ccccc1N1CCN(CCCNC(=O)NCc2ccccc2-c2ccccc2)CC1
(C) O=S(=O)(c1ccc(N2CCC2)cc1)C1(F)CCN(CCc2ccc(F)cc2F)CC1
(D) O=C1NCc2cc(F)c(OCCCN3CCN(c4cccc5ccccc45)CC3)cc21
(E) CCCCC(Oc1cc(Cl)cc(Cl)c1)c1nc(Nc2ccccc2)nc(N2CCN(C)CC2)n1 (stereo not given)
### Prompt Arrange the 5 compounds from largest to smallest Ki. List the labels according to the requested ordering.
### Response E, B, A, D, C
(E: 287 nM, B: 140 nM, A: 60 nM, D: 32.1 nM, C: 1 nM)

----------
Published pKi for UniProt:P28223, assembled from different documents, is shown next.
pKi: −log10 of the molar value.

Below: 2 molecules and their reported pKi.
molecule: CNc1cc(NS(=O)(=O)c2ccc(N)cc2)nc(NC)n1
pKi: < 5.00
//
molecule: COc1ccc(-n2ccn(-c3cc(F)cc(F)c3)c2=O)cc1OCCN1CCCCC1
pKi: < 5.00

Now take the following molecule into account.
### Prompt Give UniProt:P28223 pKi for the following molecule: COc1ccc(N2Cc3cc(Cl)cc(Cl)c3C2=O)cc1OCCN1CCCCC1C (stereo not drawn)
### Response < 5.40

----------
Published Ki for 5-hydroxytryptamine receptor 2A (Homo sapiens, UniProt P28223), assembled from different documents, is shown next.

Below: 4 compounds and their reported Ki.
compound: Cn1cncc1-c1c[nH]c2ccc(Cl)c(F)c12
measurement kind: Ki
value: > 10 µM
--
compound: CCN/C(=N\S(=O)(=O)c1cccc(Cl)c1)N1CC(CC)C=N1 (racemic)
measurement kind: Ki
value: > 1 µM
--
compound: Cn1cncc1-c1c[nH]c2ccc(Br)c(F)c12
measurement kind: Ki
value: > 10 µM
--
compound: COc1ccc(N2CCN(c3cccc(F)c3)C2=O)cc1OCCO
measurement kind: Ki
value: > 10 µM

Now take the following compound into account.
### Prompt Report Ki, nothing else, for this compound: COc1ccc(N2Cc3cccc(OC)c3C2=O)cc1OCCN1CCCCC1
### Response > 6.31 µM

----------
Published pKi for UniProt:P28223, assembled from different documents, is shown next.
pKi: −log10 of the molar value.
measurement kind: pKi

Below: 5 compounds and their reported pKi.
compound: O=S(=O)(c1ccc(F)cc1)N1CCC(O)(CCc2ccc(F)cc2F)CC1
pKi: 6.72

compound: COc1cc2c3c(c1)N(C)CCN3[C@H]1CCN(CCCC(=O)c3ccc(F)cc3)C[C@@H]21
pKi: 8.46

compound: O=C(CCCCN1CCC(c2noc3cc(F)ccc23)CC1)c1cc2c3c(c1)CCN3C(=O)CC2
pKi: 9.14

compound: CCc1nc2c(N3CCNCC3)ccnc2n1Cc1cccc(F)c1
pKi: 6.36

compound: Nc1cc(O)ccc1C(=O)CCCN1CC[C@H]2[C@@H](C1)c1cccc3c1N2CCCS3
pKi: 7.05

(A) O=C(NCCCCN1CCN(c2ccccc2)CC1)[C@@H]1CCc2ccccc2N1
(B) O=c1n(Cc2ccc(CN3CCN(c4ccc(Cl)cc4)CC3)cc2)nc2ccccn12
(C) O=C1CCc2ccc(OCCCCN3CCN(c4cccc(Cl)c4C(F)(F)F)CC3)nc2N1
### Prompt Arrange the 3 compounds from largest to smallest pKi. List the labels according to the requested ordering.
### Response C, A, B

(A) O=S(=O)(c1ccc(F)cc1)N1CCN(CCc2ccc(F)cc2F)CC1
(B) COc1cc(C(C)C)c(Oc2cnc(N)nc2N)cc1I
### Prompt Lab note: check whether A or B shows the higher recorded pKi. To answer, give the label that identifies your chosen option.
### Response A

(A) CC(Oc1cc(C(F)(F)F)ccc1F)c1nc(N)nc(N2CCN(C)CC2)n1 (stereo not drawn)
(B) Nc1cc(Br)ccc1C(=O)CCCN1CC[C@H]2[C@@H](C1)c1cccc3c1N2CCCS3
(C) Cc1cc(CCN2CCN(c3noc4ccccc34)CC2)c2c(c1)C(C)CC(=O)N2 (stereo not drawn)
(D) Cc1cc2c(cc1C(F)(F)F)N(C(=O)Nc1cnc(Oc3cccnc3C)c(Cl)c1)CC2
### Prompt Arrange the 4 compounds from largest to smallest pKi. List the labels according to the requested ordering.
### Response C, B, D, A

----------
Published Ki for UniProt:P28223, assembled from different documents, is shown next.

compound: COc1ccc(N2Cc3cc(Cl)ccc3C2=O)cc1OCCN1CCC(C)CC1
target: UniProt:P28223
Ki: > 1000 nM
//
compound: O=C1N(CC2CCCCN2)CCN1c1cccc(Cl)c1 (stereo unspecified)
target: UniProt:P28223
Ki: > 1580 nM
//
compound: CCn1cncc1-c1c[nH]c2ccc(OC)c(F)c12
target: UniProt:P28223
Ki: > 10000 nM
//
compound: Cc1ncccc1Oc1ccc(NC(=O)N2CCc3cc(F)c(Cl)cc32)cn1
target: UniProt:P28223
Ki: 501 nM
//
compound: C[C@H]1CN(C(=O)c2ccc(-c3ccccc3)cc2)CCN1C(=O)c1ccc2cc[nH]c2c1
target: UniProt:P28223
Ki: > 10000 nM

### Prompt Report Ki, nothing else, for this compound: Fc1cccc2c1nc(OCC1CCN(CCC(F)(F)F)CC1)c1cccnc12
### Response > 10000 nM

----------
Published pKi for 5-hydroxytryptamine receptor 2A (Homo sapiens, UniProt P28223), assembled from different documents, is shown next.
pKi: −log10 of the molar value.
measurement kind: pKi

Below: 5 molecules and their reported pKi.
molecule: O=C1CC(CN2CCC(C(=O)c3ccc(F)cc3)CC2)Cc2ncncc21 (stereo unspecified)
pKi: 6.51
//
molecule: O=C1c2cccc3cccc(c23)N1CCCCCCN1CCN(c2ccccc2Cl)CC1
pKi: 6.27
//
molecule: CC(C)N1CCN2c3c(cccc31)[C@@H]1CN(CCCC(=O)c3ccc(F)cc3)CC[C@@H]12
pKi: 8.12
//
molecule: O=S(=O)(c1ccc(Cl)cc1)C1(F)CCN(CCc2ccc(F)cc2F)CC1
pKi: 9.19
//
molecule: NCC(c1ccccc1)c1ccc(Br)cc1 (stereo unspecified)
pKi: 6.59

(I) Nc1nc(SCCN2CCN(Cc3ccccc3Cl)CC2)nc(N)c1Cc1ccccc1O
(II) O=C(NCCC(F)CN1CCN(c2cccc(Cl)c2Cl)CC1)c1cc2ccccc2s1 (stereo unspecified)
### Prompt Between the entries labeled I and II , whose measured pKi is lower? To answer, give the label that identifies your chosen option.
### Response II
(II: 5.48, I: 7.64)

----------
Published pKi for 5-hydroxytryptamine receptor 2A (Homo sapiens, UniProt P28223), assembled from different documents, is shown next.
pKi: −log10 of the molar value.

Below: 2 molecules and their reported pKi.
smiles record: COc1ccc(N2Cc3ccccc3C2=O)cc1OCCN1CCCCC1
value: < 5.00
//
smiles record: CC(C)Oc1cc2c(cc1Cl)N(C(=O)Nc1cccnc1)CC2
value: < 5.20

Now take the following molecule into account.
### Prompt Give 5-hydroxytryptamine receptor 2A (Homo sapiens, UniProt P28223) pKi for the following molecule: CNC(=O)[C@H]1O[C@@H](n2cnc3c(NCc4cccc(I)c4)nc(Cl)nc32)[C@H](O)[C@@H]1O
### Response < 5.00
